- System: primary CLL samples (CD19+ and CD5+ cells)
- assayDetails: High-throughput dynamic BH3 profiling (HT-DBP): drug-induced apoptotic priming (delta priming), cytochrome c release after BH3 peptide
- Type: cell-based, human
- runParameters: peptide PUMA 1 uM; feature loss_7p22.2
measure: direction

See these solved cases before continuing.
compound="Cc1c2c(nn1C)CSCc1cc(n(C)n1)CSc1cc(c3ccccc3c1)OCCCc1c(C(=O)O)n(C)c3c-2c(Cl)ccc13 [AZD5991]" targetortestsystem="primary CLL samples (CD19+ and CD5+ cells)" resultvalue=Sensitive
compound="CCC[C@H](N[C@H]1CCc2cc(F)cc(F)c2C1)C(=O)Nc1cn(C(C)(C)CNCC(C)(C)C)cn1 [Nirogacestat]" targetortestsystem="primary CLL samples (CD19+ and CD5+ cells)" resultvalue=Sensitive
compound="CC(C)c1c(C(=O)Nc2ccccc2)c(-c2ccccc2)c(-c2ccc(F)cc2)n1CC[C@@H](O)C[C@@H](O)CC(=O)O [Atorvastatin]" targetortestsystem="primary CLL samples (CD19+ and CD5+ cells)" resultvalue=Resistant
compound="Cc1sc2c(c1C)C(c1ccc(Cl)cc1)=N[C@@H](CC(=O)OC(C)(C)C)c1nnc(C)n1-2 [JQ1]" targetortestsystem="primary CLL samples (CD19+ and CD5+ cells)" resultvalue=Resistant

Form: compound = O=C(CCCCCCNC(=O)c1cnc(N(c2ccccc2)c2ccccc2)nc1)NO [Ricolinostat] ; direction = Resistant
